The values you see were collected from patent US10570176B2.

# protocol_description: in vivo
# condition_description: rat, plasma, iv, 3.5 mg/kg, CL, Mean, rats, intravenous injection 3.5 mg/kg, mean of 6
Non-standard residues stand in square brackets, D forms with d. Residues, ends and D or L forms follow the SMILES beside them.

compound: CSCC[C@@H](NC(=O)[C@H](NC(=O)[C@@H](C)NC(=O)[C@@H](CO)NC(=O)CN)C(C)C)C(=O)N[C@H](Cc1ccccc1)C(=O)N[C@H](CO)C(=O)N[C@H](CO)C(=O)N[C@H](CCCCN)C(=O)N[C@H](CCC(=O)O)C(=O)N[C@H](CCCNC(=N)N)C(=O)NCC(=O)O [D-TTK001] (H-G[dS][dA][dV][dM][dF][dS][dS][dK][dE][dR]G-OH; N-terminus and C-terminus assumed)
units_of_measure: L/h/kg
clearance: 0.18
